Hi, quick share: literature pIC50 data for hCRTH2 receptor (Homo sapiens (Human), UniProt Q9Y5Y4), several sources combined.
Sequence (Q9Y5Y4 whole entry): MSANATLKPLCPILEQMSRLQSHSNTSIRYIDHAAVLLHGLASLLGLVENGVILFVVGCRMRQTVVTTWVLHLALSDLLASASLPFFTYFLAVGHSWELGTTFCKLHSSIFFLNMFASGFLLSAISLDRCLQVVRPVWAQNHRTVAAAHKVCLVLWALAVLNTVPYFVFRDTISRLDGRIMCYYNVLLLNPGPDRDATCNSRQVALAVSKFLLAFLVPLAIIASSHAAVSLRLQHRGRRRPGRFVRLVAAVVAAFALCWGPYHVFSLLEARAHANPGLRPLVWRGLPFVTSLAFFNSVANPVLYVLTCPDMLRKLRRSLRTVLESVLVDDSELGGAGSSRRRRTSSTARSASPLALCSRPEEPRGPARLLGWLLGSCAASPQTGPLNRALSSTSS
pIC50: −log10 of the molar value.
Assay Readout: pIC50

>  <Compound>
CCN(Cc1cc(C(F)(F)F)ccc1-c1cn(CC(=O)O)c2ccccc12)C(=O)C1CC1

>  <Assay Readout>
pIC50

>  <Numeric Value>
7.72

$$$$
>  <Compound>
CCN(Cc1cc(C(F)(F)F)ccc1-c1cc(CC(=O)O)n2ccc(C(F)(F)F)nc12)C(=O)C1CC1

>  <Assay Readout>
pIC50

>  <Numeric Value>
8.22

$$$$
>  <Compound>
Cc1nnc(C2CC2)n1Cc1cc(C(F)(F)F)ccc1-c1cn(CC(=O)O)c2ccc(F)cc12

>  <Assay Readout>
pIC50

>  <Numeric Value>
8.05

$$$$
>  <Compound>
CCN(Cc1cc(F)ccc1-c1nn(CC(=O)O)c2ccc(Cl)cc12)C(=O)OC(C)(C)C

>  <Assay Readout>
pIC50

>  <Numeric Value>
7.89

$$$$
>  <Compound>
Cc1c(Cc2ccccc2S(=O)(=O)c2ccccc2)c2c(n1CC(=O)O)CC(C)(C)NC2=O

>  <Assay Readout>
pIC50

>  <Numeric Value>
8.35

$$$$
>  <Compound>
CCN(Cc1cc(C(F)(F)F)ccc1-c1cn(CC(=O)O)c2ccc(C)nc12)C(=O)C1CC1

>  <Assay Readout>
pIC50

>  <Numeric Value>
7.80

$$$$
>  <Compound>
Cc1c(Cc2ccc(C(F)(F)F)cc2S(=O)(=O)c2ccccc2)c2c(n1CC(=O)O)CCNC2=O

>  <Assay Readout>
pIC50

>  <Numeric Value>
7.89

$$$$
>  <Compound>
Cc1c(Cc2cccn2S(=O)(=O)c2ccccc2)c2c(n1CC(=O)O)CCNC2=O

>  <Assay Readout>
pIC50

>  <Numeric Value>
8.23

$$$$
>  <Compound>
CCN(Cc1cc(C(F)(F)F)ccc1-c1cn(CC(=O)O)c2cccc(F)c12)C(=O)C1CC1

>  <Assay Readout>
pIC50

>  <Numeric Value>
8.52

$$$$
>  <Compound>
CCN(Cc1cc(F)ccc1-c1nn(CC(=O)O)c2ccc(Cl)cc12)C(=O)C1CC1

>  <Assay Readout>
pIC50

>  <Numeric Value>
8.22

$$$$
>  <Compound>
CCN(Cc1ccccc1-n1cc(CC(=O)O)c2ccc(C)nc21)C(=O)C1CC1

>  <Assay Readout>
pIC50

>  <Numeric Value>
8.30

$$$$
>  <Compound>
Cc1c(CC(=O)O)c(-c2ccc(Cl)cc2)nn1Cc1ccccc1S(=O)(=O)c1ccccc1

>  <Assay Readout>
pIC50

>  <Numeric Value>
7.62

$$$$
>  <Compound>
COc1cccc(Cc2c3c(n(CC(=O)O)c2C)CCNC3=O)c1S(=O)(=O)c1ccccc1

>  <Assay Readout>
pIC50

>  <Numeric Value>
7.70

$$$$
>  <Compound>
Cc1c(Cc2ccccc2S(=O)(=O)c2ccccc2)c2c(=O)n(C)ccc2n1CC(=O)O

>  <Assay Readout>
pIC50

>  <Numeric Value>
8.31

$$$$
>  <Compound>
CCN(Cc1cc(C(F)(F)F)ccc1-c1cc(CC(=O)O)n2cccnc12)C(=O)C1CC1

>  <Assay Readout>
pIC50

>  <Numeric Value>
7.89

$$$$
>  <Compound>
Cc1c(Cc2ccccc2S(=O)(=O)c2ccc(OC(F)(F)F)cc2)c2c(n1CC(=O)O)CCNC2=O

>  <Assay Readout>
pIC50

>  <Numeric Value>
8.16

$$$$
>  <Compound>
CNC(=O)c1ccc(Cc2c3c(n(CC(=O)O)c2C)CCNC3=O)c(S(=O)(=O)c2ccccc2)c1

>  <Assay Readout>
pIC50

>  <Numeric Value>
8.02

$$$$
>  <Compound>
Cc1nn(-c2cccc(NC(=O)[C@@H]3C[C@H]3c3ccccc3)c2)c(C)c1CC(=O)O (relative stereo)

>  <Assay Readout>
pIC50

>  <Numeric Value>
6.60

$$$$
>  <Compound>
CCN(Cc1cc(C(F)(F)F)ccc1-c1nn(CC(=O)O)c2ccccc12)C(=O)C1CC1

>  <Assay Readout>
pIC50

>  <Numeric Value>
7.74

$$$$
>  <Compound>
Cc1c(CC(=O)O)c(=O)[nH]n1Cc1ccccc1S(=O)(=O)c1ccccc1

>  <Assay Readout>
pIC50

>  <Numeric Value>
6.80

$$$$
>  <Compound>
CCN(Cc1cc(C(F)(F)F)ccc1-c1cn(C(C)C(=O)O)c2ccc(C)nc12)C(=O)C1CC1 (stereo not drawn)

>  <Assay Readout>
pIC50

>  <Numeric Value>
7.74

$$$$
>  <Compound>
Cc1c(CC(=O)O)c(-c2ccccc2)nn1Cc1ccccc1S(=O)(=O)N1CCCCC1

>  <Assay Readout>
pIC50

>  <Numeric Value>
7.18

$$$$
>  <Compound>
Cc1c(Cc2cc(Br)ccc2S(=O)(=O)c2ccccc2)c2c(n1CC(=O)O)CCNC2=O

>  <Assay Readout>
pIC50

>  <Numeric Value>
8.41

$$$$
>  <Compound>
Cc1c(Cc2ccccc2S(=O)(=O)c2ccc(Cl)cc2)c2c(n1CC(=O)O)CCNC2=O

>  <Assay Readout>
pIC50

>  <Numeric Value>
8.08

$$$$
